Test system: HCT-15 colon
TEST SUMMARY: NCI tumour cell line growth inhibition, 48 h
MEASURED ATTRIBUTE: TGI

| MOLECULE | TGI |
| --- | --- |
| CC(C)Oc1ccc(-c2nn([C@@H](C)c3oc4ccc(F)cc4c(=O)c3-c3cccc(F)c3)c3ncnc(N)c23)cc1F | > 100 µM |
| N#CC(C#N)=C1NN=C(Cl)c2ccccc21 | > 100 µM |
| Cc1cc(N(CCC#N)CCC#N)ccc1/C=N/NC(=O)c1ccccc1 | > 100 µM |
| Cn1cnc([N+](=O)[O-])c1Sc1nc2ccccc2s1 | 14.6 µM |
| Cn1ccc2c1SSSSS2 | > 100 µM |

Please turn your attention to the following entry.
Suppose we examine the molecule O=S(=O)(c1ccccc1)n1c(C(O)c2ccccc2)cc2ccccc21 (stereo unspecified) ; what TGI value has been reported?
61.3 µM

----------
Tested on: SNB-19 CNS
TEST SUMMARY: NCI tumour cell line growth inhibition, 48 h; in the data active means GI50 below about 0.43 µM; inactive means the rest
Where a SMILES comes first, the peptide text is derived from it. [ ]: non-standard residue; d: D form. The star is where a group is joined. ξ: configuration not given here. NMeF = CN[C@@H](Cc1ccccc1)C(=O)O; NMeV = CN[C@H](C(=O)O)C(C)C; ξNMeN = CNC(CC(N)=O)C(=O)O; NMeA = CN[C@@H](C)C(=O)O; ξNMeV = CNC(C(=O)O)C(C)C; Boc = CC(C)(C)OC(=O)*
Response enum: yes (1) (active), no (0) (inactive)

| COMPOUND | LABEL CLASS |
| --- | --- |
| O=C1C=CC2(O)OC/C(=C\c3ccccc3)C(O)=C2C1=O (configuration not stated) | no (0) |
| Cn1c(-c2ccncc2)c(-c2ccc(F)cc2)c2ncccc21 | no (0) |
| Cc1cc(Cl)ccc1OCc1nn2c(CCCCc3nnc4sc(COc5ccc(Cl)cc5C)nn34)nnc2s1 | no (0) |
| CC(C)N(CCCNC(=O)Nc1ccc(C(C)(C)C)cc1)C[C@H]1O[C@@H](n2ccc3c(N)ncnc32)[C@H](O)[C@@H]1O | no (0) |
| COc1cc(/C=C/C(=O)c2ccccc2)cc(OC)c1OC | no (0) |

Lab log entry: COC(=O)[C@H](C)N(C)C(=O)C(CC(N)=O)N(C)C(=O)[C@H](Cc1ccccc1)N(C)C(=O)[C@@H]1CCCN1C(=O)[C@H](C(C)C)N(C)C(=O)C(C(C)C)N(C)C(=O)[C@@H](NC(=O)OC(C)(C)C)C(C)C (some centres not stated) (Boc-V[ξNMeV][NMeV]P[NMeF][ξNMeN][NMeA]-OMe) — outcome as called in the assay?
no (0)

Lab log entry: `O=C1/C=C/[C@@H](O)[C@@H]2C[C@@H](O)C[C@H]2/C=C/CCC[C@H](CCc2ccccc2)O1` — outcome as called in the assay?
yes (1)

----------
System: RPMI-8226 leukemia
TEST SUMMARY: NCI tumour cell line growth inhibition, 48 h; in the data active = GI50 below about 0.43 µM; inactive = the rest
Response enum: active, inactive

Answered cases to consult:
| COMPOUND | LABEL CLASS |
| --- | --- |
| C=C1C(O)C2C(=C(CCC3CC3)C13CC3)C(=O)C(C)(C)C2O (configuration not stated) | inactive |
| O=c1ncc(I)cn1C1CC(O)C(CO)O1 (configuration not stated) | inactive |
| CC(C)N(CCCNC(=O)Nc1ccc(C(C)(C)C)cc1)C[C@H]1O[C@@H](n2ccc3c(N)ncnc32)[C@H](O)[C@@H]1O | inactive |
| COc1cc(-c2nn(-c3cccc(NC(=O)Nc4cccc(C(F)(F)F)c4)c3)cc2-c2ccncc2)ccc1Cl | active |
| Cc1cc(=O)n2nnc3c4ccccc4ccc3n12 | inactive |
| Cn1c(-c2ccncc2)c(-c2ccc(F)cc2)c2ncccc21 | inactive |
| CCCCOC(=O)CC(CC(=O)OCCCC)(OC(C)=O)C(=O)OCCCC | inactive |
| COc1ccc(-c2ccc(-c3ccc(C(=N)N)c(F)c3)s2)cc1 | active |

Lab log entry: `COc1cccc2c1O/C(=C\c1ncc([N+](=O)[O-])n1C)C2=O` — outcome as called in the assay?
inactive

Lab log entry: `Cc1oc2c(C(=O)N/N=C\c3ccc(O)cc3O)c[nH]c2c1C` — outcome as called in the assay?
inactive

Lab log entry: `CC(=O)c1c(Nc2cccc(F)c2)[nH]c2c(Cl)cc(Cl)c(Cl)c2c1=O` — outcome as called in the assay?
active

Lab log entry: `Nc1nc2cc(O)ccc2n2cc3c(F)cccc3c12` — outcome as called in the assay?
inactive

Lab log entry: Nc1c(C(=O)Nc2cccc(C(F)(F)F)c2)sc2nc3c(cc12)C(O)CCC3 (configuration not stated) — outcome as called in the assay?
inactive

----------
System: HL-60(TB) leukemia
TEST SUMMARY: NCI tumour cell line growth inhibition, 48 h
Below, each entry is listed alongside its reported TGI.

Below are worked cases with known answers.
| COMPOUND | TGI |
| --- | --- |
| COc1cc(OC)c(/C=C/c2cc[n+](C)c3ccccc23)c(OC)c1 | 8.58 µM |
| O=C(Nc1ccc(Cl)cc1)Nc1ccc(Cl)c(C(F)(F)F)c1 | 3.91 µM |
| C=C(C(=O)OC)N1C(=O)CC(C)C1=O (stereo not given) | 3.78 µM |
| CCC(N)(C(=O)O)C(C)C (stereo not given) | > 100 µM |
| CC(=O)OCC1OC(Nc2ccc3nc(C)n(-c4ccccc4)c(=O)c3c2)C(OC(C)=O)C(OC(C)=O)C1OC(C)=O (stereo not given) | > 50 µM |
| CCN=c1nc2sc3c(c2c(NC(=S)NCC)s1)CCN(N1CCc2c(sc4nc(=NCC)sc(NC(=S)NCC)c24)C1)C3 | > 100 µM |
| COc1cc(/C=C/C(=O)c2ccccc2)cc(OC)c1OC | 6.82 µM |
| O=C1C2c3[nH]c4ccccc4c3C3CCCCC3C2C(=O)N1c1ccccc1 (stereo not given) | > 100 µM |

Suppose we examine the compound `CN(C)CCONC(=O)C12CC3CC(CC(C3)C1)C2` ; what TGI value has been reported?
> 100 µM

Suppose we examine the compound `CCC(=O)OC1=C(c2ccccc2)Sc2ccc(Cl)cc2-n2cccc21` ; what TGI value has been reported?
> 10 µM

Suppose we examine the compound `Clc1ccc(Cn2c(CN3CCCC3)nc3ccccc32)cc1` ; what TGI value has been reported?
65.2 µM

----------
Tested on: OVCAR-3 ovarian
TEST SUMMARY: NCI tumour cell line growth inhibition, 48 h
MEASURED ATTRIBUTE: TGI (µM)
Just the number in µM, nothing appended.

Below are worked cases with known answers.
| MOLECULE | UNITS SYMBOL | TGI |
| --- | --- | --- |
| COc1cc2c3c(n(CCCNC4=NCCS4)c(=O)c2cc1OC)-c1cc2c(cc1C3=O)OCO2 | µM | 2.09 |
| O=[N+]([O-])c1ccc(C2CC(c3ccc(NCc4nc5ccccc5[nH]4)cc3)=NO2)cc1 (stereo not given) | µM | 57.4 |
| C=[CH][Sn]([CH]=C)([S]c1cccc2cccnc12)[S]c1cccc2cccnc12 | µM | 0.81 |
| O=C(Nc1ccc(Cl)cc1)Nc1ccc(Cl)c(C(F)(F)F)c1 | µM | 7.76 |
| C[CH2][Sn]([CH2]C)([O]C(=O)c1c(F)cccc1F)[O][Sn]([CH2]C)([CH2]C)[O]C(=O)c1c(F)cccc1F | µM | 78.1 |
| O=C(CN(/C=C/C(=O)C(F)(F)F)c1ccc(Cl)cc1)c1ccc(F)cc1 | µM | 28.2 |
| O=S(=O)(c1ccccc1)n1c(C(O)c2ccccc2)cc2ccccc21 (stereo not given) | µM | 30.3 |
| O=C1C=CC2(O)OC/C(=C\c3ccccc3)C(O)=C2C1=O (stereo not given) | µM | 3.23 |
| NCCCCCn1c2c(c3ccccc3c1=O)C(=O)c1ccccc1-2 | µM | 6.74 |
| O=S(O)CCCCCSSSCCCCCS(=O)O | µM | 78.9 |

Please turn your attention to the following entry.
Provide value of TGI for this record tested with OVCAR-3 ovarian: c1ccc2nc(N/N=C3\CCCCC3C3CCCCC3)ccc2c1 (stereo not given)
27

----------
Below, each entry is listed alongside its reported TGI.
System: SK-OV-3 ovarian
TEST SUMMARY: NCI tumour cell line growth inhibition, 48 h

Below are worked cases with known answers.
| MOLECULE | MEASURED ATTRIBUTE | EXPERIMENTAL RESULT |
| --- | --- | --- |
| CNC(=S)/C(C#N)=C(\N)N1CCN(C)CC1 | TGI | > 100 µM |
| Cc1ccc(C2=Nc3c(N)nc(N)nc3NC(c3cccc(Nc4ccnc5cc(C(F)(F)F)ccc45)c3)C2)cc1 (stereo not given) | TGI | 13.4 µM |
| COC(=O)[C@@]12CN(C)[C@@H](C(C)(C)C)N1C(=O)OC2c1ccccc1 (stereo not given in full) | TGI | > 100 µM |
| COc1ccc(C(=O)/C=C/c2ccc(Oc3cc(C(=O)/C=C/c4ccc(O)cc4)c(O)cc3OC)cc2)c(O)c1 | TGI | 96.4 µM |

Suppose we examine the molecule `CC(=O)Oc1cc(C(C)C)c(OCCN(C)C)cc1C` ; what TGI value has been reported?
> 100 µM
